Measured pIC50 by item
Target: FGFR1 IIIc (Homo sapiens, UniProt P11362)
Construct: host or cells: Cos-1
Sequence (P11362 22-822): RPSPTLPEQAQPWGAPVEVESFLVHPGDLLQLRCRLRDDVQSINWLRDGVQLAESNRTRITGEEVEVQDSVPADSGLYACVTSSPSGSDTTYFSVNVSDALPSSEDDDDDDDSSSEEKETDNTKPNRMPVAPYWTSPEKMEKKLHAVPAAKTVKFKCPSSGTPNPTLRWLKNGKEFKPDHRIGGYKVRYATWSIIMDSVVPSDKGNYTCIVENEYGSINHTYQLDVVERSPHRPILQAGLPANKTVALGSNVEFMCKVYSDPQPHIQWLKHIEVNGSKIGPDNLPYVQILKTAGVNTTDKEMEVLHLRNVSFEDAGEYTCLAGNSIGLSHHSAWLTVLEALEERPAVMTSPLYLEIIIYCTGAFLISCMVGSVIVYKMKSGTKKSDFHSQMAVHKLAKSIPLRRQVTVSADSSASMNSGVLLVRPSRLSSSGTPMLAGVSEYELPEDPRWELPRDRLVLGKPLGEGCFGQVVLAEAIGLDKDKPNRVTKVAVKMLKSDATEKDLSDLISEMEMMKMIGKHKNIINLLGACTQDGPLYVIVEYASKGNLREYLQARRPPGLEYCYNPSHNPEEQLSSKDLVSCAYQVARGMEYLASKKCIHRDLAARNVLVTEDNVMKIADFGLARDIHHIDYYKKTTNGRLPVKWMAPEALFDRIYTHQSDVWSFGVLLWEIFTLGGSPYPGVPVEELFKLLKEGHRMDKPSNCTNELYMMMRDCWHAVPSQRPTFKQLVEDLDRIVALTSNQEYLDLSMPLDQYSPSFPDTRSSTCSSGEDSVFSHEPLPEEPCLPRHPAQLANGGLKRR
Assay: Cell based inhibition of transiently expressed FGFR1 IIIc phosphorylation via use of ECHO technology (Cos-1 cells)
Conditions: Cos-1 cells, phospho-FGFR1, ECHO dosing; upper bound of bin; read-out: IC50
pIC50: −log10 of the molar value. Counter-ions that a name gives are not always drawn.
Property Name: pIC50

[[record]]
compound = "Cc1cc(CNc2nccc(Nc3cc(CCc4cccc(OC(C)C)c4)[nH]n3)n2)on1"
property_name = "pIC50"
measurement = "> 6.00"

[[record]]
compound = "COc1cc(Nc2cc(OC(C)C)[nH]n2)nc(NCc2cc(C3CC3)no2)n1"
property_name = "pIC50"
measurement = "> 6.70"

[[record]]
compound = "Cc1cc(CNc2nccc(Nc3cc(OCCOc4ccccc4)[nH]n3)n2)on1"
property_name = "pIC50"
measurement = "> 6.00"

[[record]]
compound = "Cc1cc(CNc2nccc(Nc3cc(OCc4cccc(F)c4)[nH]n3)n2)on1 [Example 94, hydrochloride]"
property_name = "pIC50"
measurement = "> 6.70"

[[record]]
compound = "CCOCCCc1cc(Nc2ccnc(NCc3cc(C)no3)n2)n[nH]1"
property_name = "pIC50"
measurement = "> 5.00"

[[record]]
compound = "Cc1cc(CN(C)c2nccc(Nc3cc(C)[nH]n3)n2)on1"
property_name = "pIC50"
measurement = "> 6.00"

[[record]]
compound = "CNC(=O)c1cc(C)cc(CCc2cc(Nc3ccnc(NCc4cc(C)no4)n3)n[nH]2)c1"
property_name = "pIC50"
measurement = "> 5.00"

[[record]]
compound = "NC(=O)c1cc(CNc2nccc(Nc3cc(COc4ccccc4)n[nH]3)n2)on1"
property_name = "pIC50"
measurement = "> 4.52"

